# experimental_target: Collagenase 3 (Homo sapiens)
# procedure_summary: inhibition of MMP13 collagenase activity – biochemical, FRET peptide cleavage, primary screen (AID 570);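 also: 0% = DMSO wells and 100% = wells with reference MMP-13 inhibitor after basal subtraction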
# condition_summary: MMP-13 fTHP FRET cleavage, Mca fluorescence; at 4 µM; stronger effect = higher value
About 45 (0.07%) of roughly 65,000 compounds were called active. The full list was thinned out, with actives kept by preference.
metric: inhibition (%)
Answer format: numeric, % implied, no suffix.

Reference set, count: 4
mol: Cc1nc(CNS(=O)(=O)c2cccnc2)cs1
numeric_value: 2.4

mol: COc1ccccc1N1CCN(C(=O)c2cn(-c3ccccc3)nc2-c2cccnc2)CC1
numeric_value: -5.4

mol: COc1ccc(Cn2nnc3c(=O)[nH]c(C4CCN(C(=O)c5ccccc5Cl)CC4)nc32)cc1
numeric_value: 7.2

mol: CCCCN(C)C(=O)c1ccc2c(c1)N(CC)C(=O)c1ccccc1S2(=O)=O
numeric_value: -4.5

Endpoint output: inhibition of `CCn1c(SCC(=O)c2ccc(Cl)s2)nnc1-c1cccs1` . Value?
-2.1

* * *

# experimental_target: Collagenase 3 (Homo sapiens)
# procedure_summary: inhibition of MMP13 collagenase activity – biochemical, FRET peptide cleavage, primary screen (AID 570);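 also: 0% = DMSO wells and 100% = wells with reference MMP-13 inhibitor after basal subtraction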
# condition_summary: MMP-13 fTHP FRET cleavage, Mca fluorescence; at 4 µM; stronger effect = higher value
In all, about 65,000 compounds went through this assay and about 45 (0.07%) were called active. The full list was thinned out, with actives kept by preference.
# inhibition values compiled below
Answer format: numeric, % implied, no suffix.

Reference set, count: 5
compound: O=C(Cn1cnc2c(cnn2-c2ccccc2)c1=O)NCc1ccccc1
experimental_target: Collagenase 3 (Homo sapiens)
unit_name: %
numeric_value: -2

compound: COC(=O)c1ccc(Oc2nc(NC(C)C)nc(SC)n2)cc1
experimental_target: Collagenase 3 (Homo sapiens)
unit_name: %
numeric_value: 0.3

compound: CCOC(=O)CSc1nnc(CNC(=O)c2cccs2)n1-c1cc(OC)ccc1OC
experimental_target: Collagenase 3 (Homo sapiens)
unit_name: %
numeric_value: -0.5

compound: N#CC(C(=O)c1ccc(S(=O)(=O)N2CCCCCC2)cc1)c1nc2ccccc2[nH]1 (stereo unspecified)
experimental_target: Collagenase 3 (Homo sapiens)
unit_name: %
numeric_value: -11.8

compound: Cn1c(/C(C#N)=C2/CCCCCN2)nc2ccccc21
experimental_target: Collagenase 3 (Homo sapiens)
unit_name: %
numeric_value: 12.4

Pending compound:
Endpoint output: inhibition of COc1ccccc1N(C(=O)Cn1nnc2ccccc21)C(C(=O)NCc1ccco1)c1ccc(C)o1 (stereo unspecified) . Value?
7.4

* * *

# experimental_target: Collagenase 3 (Homo sapiens) (UniProt P45452)
# procedure_summary: inhibition of MMP13 collagenase activity – biochemical, FRET peptide cleavage, primary screen (AID 570);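 also: 0% = DMSO wells and 100% = wells with reference MMP-13 inhibitor after basal subtraction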
# condition_summary: MMP-13 fTHP FRET cleavage, Mca fluorescence; at 4 µM; stronger effect = higher value
Hit rate of the full screen: of about 65,000 compounds, about 45 (0.07%) were called active. Only a selection was taken, and actives are over-represented in it overall.
# inhibition values compiled below
Answer format: numeric, % implied, no suffix.

Reference set, count: 5
compound: CC(C)c1ccc(-c2nn[nH]n2)cc1
unit_name: %
inhibition: 0.3

compound: Cc1ccsc1-c1nc(CSCC(=O)NCCN2CCCC2)c(C)o1
unit_name: %
inhibition: -72.5

compound: O=C(CSc1n[nH]c(-c2cccnc2)n1)Nc1ccnc2ccccc12
unit_name: %
inhibition: -1.2

compound: CCOC(=O)N1CCN(C(=O)CNC(=O)Cc2ccc(Cl)cc2)CC1
unit_name: %
inhibition: -1.6

compound: CC(C)(C)c1csc(NC2=NS(=O)(=O)c3ccccc32)n1
unit_name: %
inhibition: 0.2

Endpoint output: inhibition of `Cc1ccc(S(=O)(=O)Cn2nnnc2CN2CCN(Cc3ccc4c(c3)OCO4)CC2)cc1` . Value?
-3.7

Endpoint output: inhibition of O=C(CN(CC1CCCO1)C(=O)CNS(=O)(=O)c1ccccc1)NCc1ccccc1 (stereo unspecified) . Value?
-0.3

Endpoint output: inhibition of `CCC(=O)Nc1cccc(NC(=O)c2cccnc2)c1` . Value?
-1.1
